- MEASUREMENT_TARGET: Bcl-2-like protein 10 (Homo sapiens)
- PROTOCOL_NOTES: TR3 peptide-Bcl-B binding displacers, biochemical primary FP assay, phenotype converters (AID 1240);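 further: 0% = Bcl-B with tracer peptide and DMSO and 100% = tracer peptide lacking Bcl-B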
- MEASUREMENT_SETUP: GST-Bcl-B / FITC-TR3 peptide fluorescence polarization; stronger effect = higher value; compound at 3.75 mg/L
In all, about 50,000 compounds went through this assay and about 800 (1.6%) showed an effect of 50% or more. Only a selection was taken, and strong results are over-represented in it overall.
# displacement per entry
ASSAY_READOUT: displacement (%)

>>> measured_result("COc1ccc(OC)c(/C=C2\\NC(=S)N(c3ccccc3)C2=O)c1")
62.3
>>> measured_result("COc1ccc(N2C(=O)/C(=C\\c3cc(OC)ccc3OC)SC2=S)cc1")
28.3
>>> measured_result("COc1ccc(C=C2NC(=S)N(c3ccccc3)C2=O)c(OC)c1")
3.7
>>> measured_result("COc1ccc(OC)c(/C=C2/SC(=S)N(CNc3cccc(Cl)c3)C2=O)c1")
57
>>> measured_result("COc1ccc(S(=O)(=O)N(Cc2ccccc2)c2ccccc2C(=O)N2CCOCC2)cc1")
-1.1
>>> measured_result("Cc1ccc(CNC(=O)c2ccc([N+](=O)[O-])cc2Cl)cc1")
0.9
>>> measured_result("COc1ccc(OC)c(/C=C2/SC(=S)N(c3ccccc3OC)C2=O)c1")
-0.9
>>> measured_result("COc1cccc(C(=O)N2N=C(c3cccnc3)CC2(O)C(F)(F)F)c1 (stereo unspecified)")
-2.9
>>> measured_result("Cc1ccc(S(=O)(=O)Oc2ccc(/C=C3\\SC(=S)NC3=O)cc2)cc1")
-32.2
>>> measured_result("COc1ccc(/C=C2\\NC(=S)N(c3ccccc3)C2=O)cc1OC")
41.7
>>> measured_result("Nc1c(Cc2ccccc2)ccc2c1C(=O)c1ccccc1C2=O")
10.3

----------
- MEASUREMENT_TARGET: Bcl-2-like protein 10 (Homo sapiens) (UniProt Q9HD36)
- Sequence (Q9HD36 whole entry, looked up): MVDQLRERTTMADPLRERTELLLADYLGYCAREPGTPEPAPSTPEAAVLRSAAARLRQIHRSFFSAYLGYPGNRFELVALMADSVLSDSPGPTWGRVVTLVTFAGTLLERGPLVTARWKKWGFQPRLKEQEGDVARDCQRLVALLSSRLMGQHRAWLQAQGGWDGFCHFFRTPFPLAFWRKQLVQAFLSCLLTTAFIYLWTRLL
- PROTOCOL_NOTES: TR3 peptide-Bcl-B binding displacers, biochemical primary FP assay, phenotype converters (AID 1240);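 further: 0% = Bcl-B with tracer peptide and DMSO and 100% = tracer peptide lacking Bcl-B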
- MEASUREMENT_SETUP: GST-Bcl-B / FITC-TR3 peptide fluorescence polarization; stronger effect = higher value; compound at 3.75 mg/L
Hit rate of the full screen: of about 50,000 compounds, about 800 (1.6%) showed an effect of 50% or more. This excerpt belongs to a sample that is enriched for strong results.
ASSAY_READOUT: displacement (%)

>>> measured_result("COc1ccc(C2CC(=O)C3=C(C2)Nc2ccccc2NC3c2cc(C)ccc2C)cc1 (stereo not given)")
-3.7
>>> measured_result("CCOc1ccc(Br)cc1C=Nc1c(C)n(C)n(-c2ccccc2)c1=O")
-1.8
>>> measured_result("CCOc1cccc(-c2cc(C(=O)N3CCCCCC3)c3ccccc3n2)c1")
-10.2
>>> measured_result("CCOc1cccc(-c2cc(C(=O)N3CCc4ccccc43)c3ccccc3n2)c1")
110
>>> measured_result("COC(=O)c1cc(Cl)c(NC(=O)C(c2ccccc2)c2ccccc2)cc1OC")
-16.6

----------
- MEASUREMENT_TARGET: Bcl-2-like protein 10 (Homo sapiens)
- PROTOCOL_NOTES: TR3 peptide-Bcl-B binding displacers, biochemical primary FP assay, phenotype converters (AID 1240);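 further: 0% = Bcl-B with tracer peptide and DMSO and 100% = tracer peptide lacking Bcl-B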
- MEASUREMENT_SETUP: GST-Bcl-B / FITC-TR3 peptide fluorescence polarization; stronger effect = higher value; compound at 3.75 mg/L
The campaign covered roughly 50,000 compounds. About 800 (1.6%) showed an effect of 50% or more. Shown is part of a subset that was picked to be rich in strong results.
# displacement per entry
ASSAY_READOUT: displacement (%)

>>> measured_result("O=[N+]([O-])c1ccc(N2CCN(S(=O)(=O)c3ccc(Cl)cc3)CC2)c(C(F)(F)F)c1")
8.3
>>> measured_result("O=[N+]([O-])c1ccccc1S(=O)(=O)NCc1ccc2c(c1)OCO2")
-3.4
>>> measured_result("COc1nccnc1NS(=O)(=O)c1ccc(NC(=S)NC(=O)c2ccc(F)c(F)c2)cc1")
6.6
>>> measured_result("Cc1onc(-c2c(F)cccc2Cl)c1C(=O)NCc1ccccn1")
-5.5
>>> measured_result("NC(=O)COc1ccc(/C=N/NS(=O)(=O)c2ccccc2)cc1")
0.2
>>> measured_result("O=C1c2ccccc2-c2c(NC3CCCCC3)c(=O)[nH]c3cccc1c23")
150
>>> measured_result("CCCCCCC(=O)Nc1nnc(CC(C)C)s1")
-12.9
>>> measured_result("O=C(CSc1n[nH]c(=O)[nH]c1=O)c1ccc(Cl)cc1")
-6.1
>>> measured_result("C=CCN1C(=O)/C(=C\\c2ccc(OCc3ccccc3)c(OCC)c2)SC1=S")
49.5
>>> measured_result("O=C(CSc1nc2ccc([N+](=O)[O-])cc2s1)N1CCOCC1")
1.4
>>> measured_result("Cc1cc([N+](=O)[O-])ccc1NCc1cccc(C(F)(F)F)c1")
2.6

----------
- MEASUREMENT_TARGET: Bcl-2-like protein 10 (Homo sapiens) (UniProt Q9HD36)
- PROTOCOL_NOTES: TR3 peptide-Bcl-B binding displacers, biochemical primary FP assay, phenotype converters (AID 1240);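 further: 0% = Bcl-B with tracer peptide and DMSO and 100% = tracer peptide lacking Bcl-B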
- MEASUREMENT_SETUP: GST-Bcl-B / FITC-TR3 peptide fluorescence polarization; stronger effect = higher value; compound at 3.75 mg/L
In all, about 50,000 compounds went through this assay and about 800 (1.6%) showed an effect of 50% or more. Shown is part of a subset that was picked to be rich in strong results.
ASSAY_READOUT: displacement (%)

>>> measured_result("CC(=O)Nc1nonc1-c1nc2ccccc2n1Cc1ccc([N+](=O)[O-])cc1")
8.1
>>> measured_result("O=C1OC(Nc2ncccn2)(c2ccccc2)c2ccccc21 (stereo unspecified)")
-7.3
>>> measured_result("Cc1ccc(CNC(=O)C(C)Oc2ccc(Cl)cc2Cl)cc1 (stereo unspecified)")
-12.1
>>> measured_result("CCOC(=O)NC(NC(=O)OCC)c1cccc([N+](=O)[O-])c1")
-5.1
>>> measured_result("CCC1=NN2C(=N)/C(=C/c3ccc4c(c3)OCO4)C(=O)N=C2S1")
3
>>> measured_result("Cc1ccc(C(=O)Nc2ccc(NC(=O)c3ccco3)cc2)cc1C")
-0.4
>>> measured_result("C=CCN1C(=O)/C(=C\\c2ccc(-c3ccc(F)cc3)o2)C(=O)NC1=S")
-3.3
>>> measured_result("N#C/C(=C/c1cc([N+](=O)[O-])ccc1Cl)C(=O)Nc1cccc(Br)c1")
-3.3
>>> measured_result("O=C1OC(c2ccc(NC(=O)C(F)(F)F)cc2)(c2ccc(NC(=O)C(F)(F)F)cc2)c2ccccc21")
4.8
>>> measured_result("COc1ccc([N+](=O)[O-])cc1NCc1cccnc1")
3.1
>>> measured_result("CN1C(=O)NC(=O)/C(=C/c2ccc(-c3ccc(F)cc3)o2)C1=O")
123
>>> measured_result("COc1ccc(C(=O)N=Nc2c(O)[nH]c3c(C)cc(Br)cc23)cc1")
3
>>> measured_result("CCc1ccc(-c2csc(N3N=C(c4cccs4)CC3c3ccc(F)cc3)n2)cc1 (stereo unspecified)")
0.2
>>> measured_result("CN1C(=O)NC(=O)/C(=C/c2ccc(-c3ccc(Cl)cc3)o2)C1=O")
37
>>> measured_result("O=C(N=Nc1c(O)[nH]c2ccc(Br)cc12)c1ccc([N+](=O)[O-])cc1")
6.8
>>> measured_result("O=C(N=Nc1c(O)[nH]c2ccc([N+](=O)[O-])cc12)c1cccc(Br)c1")
3.3
>>> measured_result("O=C(N=Nc1c(O)[nH]c2ccc([N+](=O)[O-])cc12)c1ccc2c(c1)OCO2")
75.1
>>> measured_result("CC(=O)Nc1nonc1-c1nc2ccccc2n1Cc1ccccc1")
49.8
>>> measured_result("COc1ccc(C(=O)N=Nc2c(O)[nH]c3c(C)cc([N+](=O)[O-])cc23)cc1")
115
>>> measured_result("CCOC(=O)C1=C(O)/C(=C/c2cccnc2)SC1=Nc1ccc(C)cc1")
14.8
>>> measured_result("CCOc1cccc(N2C(=O)NC(=O)/C(=C\\c3ccc(Sc4ccccc4)o3)C2=O)c1")
4

----------
# displacement per entry
- MEASUREMENT_TARGET: Bcl-2-like protein 10 (Homo sapiens) (UniProt Q9HD36)
- PROTOCOL_NOTES: TR3 peptide-Bcl-B binding displacers, biochemical primary FP assay, phenotype converters (AID 1240);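 further: 0% = Bcl-B with tracer peptide and DMSO and 100% = tracer peptide lacking Bcl-B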
- MEASUREMENT_SETUP: GST-Bcl-B / FITC-TR3 peptide fluorescence polarization; stronger effect = higher value; compound at 3.75 mg/L
Out of some 50,000 compounds screened, about 800 (1.6%) showed an effect of 50% or more. This excerpt belongs to a sample that is enriched for strong results.
ASSAY_READOUT: displacement (%)

>>> measured_result("O=C(Nc1ccc(Cl)cn1)c1ccc(-c2ccc([N+](=O)[O-])cc2)o1")
13.9
>>> measured_result("Cc1cc([N+](=O)[O-])ccc1-c1ccc(C(=O)Nc2ccc(-c3nc4ccccc4o3)c(O)c2)o1")
10.8
>>> measured_result("CCOc1cc(C(=O)Nc2ccc3c(c2)OCCO3)cc(OCC)c1OCC")
-7.7
>>> measured_result("CCOc1cc(/C=C2\\C=C(c3ccc(Br)cc3)OC2=O)ccc1OC(C)=O")
12.6
>>> measured_result("CCOc1cc(/C=C2\\C=C(c3ccc(C)cc3)OC2=O)ccc1OC(C)=O")
111
>>> measured_result("COc1ccc(C2=C/C(=C\\c3ccc(OC(C)=O)c(OC)c3)C(=O)O2)cc1")
39.4
>>> measured_result("COc1ccc(C2=C/C(=C\\c3ccc(OC(C)=O)cc3)C(=O)O2)cc1")
110
>>> measured_result("CCOc1ccc(C2=C/C(=C/c3ccc(OC)cc3)C(=O)O2)cc1")
-0.6
>>> measured_result("CCOc1cc(/C=C2\\C=C(c3ccc(OC)cc3)OC2=O)ccc1OC(C)=O")
92.4
>>> measured_result("O=C(Nc1ccc2oc(-c3ccccc3)nc2c1)c1ccc(-c2ccc([N+](=O)[O-])cc2)o1")
22.1
